Biological target: Erh1 (Erh1wt) (Schizosaccharomyces pombe, UniProt G2TRN4)
Construct: A region of Erh1 (residues 1–104) was amplified by PCR; made in house; host or cells: Escherichia coli BL21 (Gold)
Sequence (G2TRN4 1-104): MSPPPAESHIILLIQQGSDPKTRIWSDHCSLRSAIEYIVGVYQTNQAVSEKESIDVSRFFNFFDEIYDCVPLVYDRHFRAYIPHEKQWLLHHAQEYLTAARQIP
Assay: Isothermal titration calorimetry (ITC), SUMO-tagged Mmi1 peptides titrated into wild-type Erh1
Type: binding, S. pombe
Conditions: Erh1wt; ITC, 293 K, 20 mM Tris-HCl pH 7.5, 150 mM NaCl; SUMO-tagged Mmi1 peptide; single-site model
Primed or numbered codes have the meaning given here. Where no end group is shown, it is not given here. SUMO″ = SUMO fusion tag (N-terminal); SUMO = SUMO tag, N-terminal
Let's look at some substances and their measured ΔH (binding enthalpy).
Entry rule: numbers only, all in kJ per mol.

Exercise: Using the record for Mmi1F99A: Mmi1 peptide mutant F99A ({SUMO}-GKYDASRHCTDYGHSYEWPYFRSLRRES; not fully specified) , report its ΔH (binding enthalpy).
Key: -42.6

Exercise: Give its ΔH (binding enthalpy) value. Item: Mmi1R119A: Mmi1 peptide mutant R119A ({SUMO}-GKYDFSRHCTDYGHSYEWPYFRSLARES; not fully specified)
Key: -46.3

---
Exercise: State the recorded ΔH (binding enthalpy) for this entry: Mmi1^106–122: further truncated Mmi1 fragment, residues 106–122 ({SUMO″}-YGHSYEWPYFRSLRRES; not fully specified)
Key: -73.6
